- Test system: Vero TMPRSS cells
- conditionLabel: read-out: SARS‐CoV‐2/Vero TMPRSS CC50; preliminary screening (50, 5, 0.5 μM), Vero TMPRSS
assayReadout: CC50 (µM)
Give bare numbers, in µM.

[ask] So what does the record say about CC50 for O=c1nc(NO)ccn1[C@@H]1O[C@H](CO)[C@@H](O)[C@H]1O [EIDD-1931, reference compound] ?
[reply] 13.4

* * *

- System: NCI-H226 (non-small cell lung cancer cell line)
- assay: NCI-60 single-dose assay
- Format: cell-based, human
- conditionLabel: Homo sapiens, NCI-H226, read-out: growth inhibition (GI%) and cytotoxicity (negative values)
assayReadout: inhibition at 10 µM

Worked examples follow.
{"columns": ["sampleSmiles", "inhibition at 10 µM"],
 "data": [
  ["COc1ccccc1N1CCN(CCNC(=O)c2c(Cl)[nH]c3c2CCCc2ccccc2-3)CC1", "< 60%"],
  ["O=C(NCCCN1CCN(Cc2ccccc2)CC1)c1c(Cl)[nH]c2c1CCCc1ccccc1-2", "< 60%"],
  ["COc1ccccc1N1CCN(CCNC(=O)c2[nH]c3c(c2Cl)CCCc2ccccc2-3)CC1", "< 60%"],
  ["CCN1CCC[C@H]1CNC(=O)c1[nH]c2c(c1Cl)CCCc1ccccc1-2", "< 60%"],
  ["O=C(NCCCN1CCN(c2ccccc2)CC1)c1cc2c([nH]1)-c1ccccc1CCC2", "75.2%"]
]}

Your task in this section: give inhibition at 10 µM for each listed record.
1. CCOc1ccccc1N1CCN(CCNC(=O)c2c(Cl)[nH]c3c2CCCc2ccccc2-3)CC1
2. N#Cc1ccccc1N1CCN(CCNC(=O)c2c(Cl)[nH]c3c2CCCc2ccccc2-3)CC1

[reply]
60.4%
< 60%

* * *

- assay: in vitro
- conditionLabel: African green monkey
Please assign not satisfied whenever CC50 at 24 h is at or above 60 µM, and satisfied whenever it is below.

{"columns": ["compound", "label"],
 "data": [
  ["COc1cccc(N2CCN(CCNC(=O)c3c(Cl)[nH]c4c3CCCc3ccccc3-4)CC2)c1 [Compound 16]", "satisfied"],
  ["N#Cc1ccccc1N1CCN(CCNC(=O)c2[nH]c3c(c2Cl)CCCc2ccccc2-3)CC1 [Compound 8]", "not satisfied"],
  ["COc1ccccc1N1CCN(CCNC(=O)c2c(Cl)[nH]c3c2CCCc2ccccc2-3)CC1 [Compound 15]", "satisfied"],
  ["COc1cccc(N2CCN(CCNC(=O)c3[nH]c4c(c3Cl)CCCc3ccccc3-4)CC2)c1 [Compound 6]", "not satisfied"],
  ["CCN1CCC[C@H]1CNC(=O)c1[nH]c2c(c1Cl)CCCc1ccccc1-2 [Compound 1]", "satisfied"]
]}

[ask] Is the reported CC50 at 24 h for O=C(NCCN1CCN(c2ccc(Cl)cc2)CC1)c1c(Cl)[nH]c2c1CCCc1ccccc1-2 [Compound 13] strictly below 60 µM?
[reply] not satisfied

[ask] Is the reported CC50 at 24 h for O=C(NCCN1CCN(c2ccccc2)CC1)c1c(Cl)[nH]c2c1CCCc1ccccc1-2 [Compound 12] strictly below 60 µM?
[reply] not satisfied

[ask] Is the reported CC50 at 24 h for N#Cc1ccccc1N1CCN(CCNC(=O)c2c(Cl)[nH]c3c2CCCc2ccccc2-3)CC1 [Compound 18] strictly below 60 µM?
[reply] satisfied

* * *

- Test system: MDCK cells
- assay: Cytotoxicity on uninfected MDCK cells (WST-8, crystal violet)
- conditionLabel: MDCK cells, 48 h; full dose-response
assayReadout: CC50 (µM)
Numbers only, in µM.

[ask] So what does the record say about CC50 for O=c1nc(NO)ccn1[C@@H]1O[C@H](CO)[C@@H](O)[C@H]1O [EIDD-1931, reference compound] ?
[reply] 138

* * *

- Tested on: ZIKV, strain Brazil/2016/INMI1
- assay: ZIKV viral yield reduction assay on Huh-7 cells
- Type: cell-based, Zika virus
- conditionLabel: Zika virus, Huh-7, 48 h
assayReadout: pEC50
One number for each entry, as −log10 of the molar value.

[ask] So what does the record say about pEC50 for "O=C(NCCN1CCN(c2ccc(Cl)cc2)CC1)c1c(Cl)[nH]c2c1CCCc1ccccc1-2" ?
[reply] 5.51

* * *

- assay: in vitro
- conditionLabel: African green monkey
Please provide measured CC50 at 24 h for the entries that follow.
Give bare numbers, in µM.

Your task in this section: give CC50 at 24 h for each listed record.
1. O=C(NCCN1CCN(c2ccccc2Cl)CC1)c1[nH]c2c(c1Cl)CCCc1ccccc1-2
2. O=C(NCCN1CCN(c2ccccc2Cl)CC1)c1c(Cl)[nH]c2c1CCCc1ccccc1-2
3. CCOc1ccccc1N1CCN(CCNC(=O)c2c(Cl)[nH]c3c2CCCc2ccccc2-3)CC1
4. COc1ccccc1N1CCN(CCNC(=O)c2[nH]c3c(c2Cl)CCCc2ccccc2-3)CC1
5. O=C(NCCN1CCN(c2ccc(Cl)c(Cl)c2)CC1)c1[nH]c2c(c1Cl)CCCc1ccccc1-2

[reply]
[57.9, 36.7, 37.2, 29.4, 67.7]

* * *

- assay: in vitro
- conditionLabel: African green monkey
Please provide measured CC50 at 24 h for the entries that follow.
Numbers only, in µM.

{"columns": ["sampleSmiles", "CC50 at 24 h / µM"],
 "data": [
  ["CCOc1ccccc1N1CCN(CCNC(=O)c2[nH]c3c(c2Cl)CCCc2ccccc2-3)CC1", 38.5],
  ["O=C(NCCN1CCN(c2ccc(Cl)c(Cl)c2)CC1)c1c(Cl)[nH]c2c1CCCc1ccccc1-2", 40.8],
  ["O=C(NCCN1CCN(c2ccc(Cl)cc2)CC1)c1[nH]c2c(c1Cl)CCCc1ccccc1-2", 143]
]}

Your task in this section: give CC50 at 24 h for each listed record.
1. O=C(NCCCN1CCN(c2ccccc2)CC1)c1cc2c([nH]1)-c1ccccc1CCC2
2. O=C(NCCCN1CCN(Cc2ccccc2)CC1)c1c(Cl)[nH]c2c1CCCc1ccccc1-2

[reply]
[55.7, 15.4]
